Molecular target: NAMPT (Homo sapiens)
Construct: His tag; host or cells: E. coli
Experiment: Biochemical inhibition assay: NAMPT enzymatic reaction, NMN quantified by mass spectrometry
Settings: NAMPT enzymatic assay; read-out: Biochem IC50
This listing pairs compounds with measured pIC50.
// pIC50 here means minus log10 of the molar concentration (mol/L)

1) CC(C)COc1ccc(S(=O)(=O)c2ccc(CNC(=O)c3cc4cnccc4[nH]3)cc2)cc1    7.90

**Q:** Requested read-out: pIC50. Entry: `O=C(NCc1ccc(S(=O)(=O)c2cc(F)cc(OCC(F)(F)F)c2)cc1)c1cc2ccncc2o1`
**A:** 8.13

**Q:** Requested read-out: pIC50. Entry: `O=C(NCc1ccc(S(=O)(=O)c2cccc3c2oc2ccccc23)cc1)c1cc2ccncc2o1`
**A:** 7.91

**Q:** Requested read-out: pIC50. Entry: `COc1c(C(F)(F)F)cccc1S(=O)(=O)c1ccc(CNC(=O)c2cc3ccncc3s2)cc1`
**A:** 8.03

**Q:** Requested read-out: pIC50. Entry: `O=C(NCc1ccc(S(=O)(=O)c2cccc(CN3CCCCC3)c2)cc1)c1ccc2nccn2c1`
**A:** 8.04

**Q:** Requested read-out: pIC50. Entry: `O=C(NCc1ccc(S(=O)(=O)c2ccc(-n3cccn3)cc2)cc1)c1cnc2[nH]ncc2c1`
**A:** 7.91

* * *

Target: NAMPT (Homo sapiens, UniProt P43490)
Construct: His tag; host or cells: E. coli
Sequence (P43490 whole entry): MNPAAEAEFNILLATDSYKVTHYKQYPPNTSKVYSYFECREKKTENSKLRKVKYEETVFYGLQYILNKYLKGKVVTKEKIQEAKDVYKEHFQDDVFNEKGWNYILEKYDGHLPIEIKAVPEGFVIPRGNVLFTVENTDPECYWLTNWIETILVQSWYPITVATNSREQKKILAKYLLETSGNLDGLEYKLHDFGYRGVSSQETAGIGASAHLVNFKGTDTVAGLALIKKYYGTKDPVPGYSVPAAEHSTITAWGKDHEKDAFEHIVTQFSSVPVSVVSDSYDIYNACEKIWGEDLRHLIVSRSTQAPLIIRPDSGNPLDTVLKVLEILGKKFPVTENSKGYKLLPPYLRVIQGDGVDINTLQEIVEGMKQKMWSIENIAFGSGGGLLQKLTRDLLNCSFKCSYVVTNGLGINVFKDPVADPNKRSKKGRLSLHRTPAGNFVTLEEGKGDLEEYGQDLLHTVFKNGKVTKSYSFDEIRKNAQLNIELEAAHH
Test: Biochemical inhibition assay: NAMPT enzymatic reaction, NMN quantified by mass spectrometry
Conditions: NAMPT enzymatic assay; read-out: Biochem IC50
This listing pairs molecules with measured pIC50.
// pIC50 here means minus log10 of the molar concentration (mol/L)

Check out these entries, answers already filled in.
1) O=C(NCc1ccc(S(=O)(=O)c2cccc3c2Oc2ccccc2S3)cc1)c1ccc2nccn2c1    8.67
2) O=C(NCc1ccc(S(=O)(=O)c2cccc(OCC(F)(F)F)c2)cc1)c1cc2ccncc2o1    8.14

Would you kindly look at the next entry?
**Q:** // lookup pIC50 | system=NAMPT (Homo sapiens, UniProt P43490) | key= `CCOCc1ccccc1S(=O)(=O)c1ccc(CNC(=O)c2cnc3nccn3c2)cc1`
**A:** 8.43

* * *

This listing pairs molecules with measured pIC50.
Target: NAMPT (Homo sapiens, UniProt P43490)
Construct: His tag; host or cells: E. coli
Assay: Biochemical inhibition assay: NAMPT enzymatic reaction, NMN quantified by mass spectrometry
Conditions: NAMPT enzymatic assay; read-out: Biochem IC50
// pIC50 here means minus log10 of the molar concentration (mol/L)

1. O=C(NCc1ccc(S(=O)(=O)c2cccnc2)cc1)c1cc2ccncc2o1    8.05

Would you kindly look at the next entry?
**Q:** // lookup pIC50 | system=NAMPT (Homo sapiens, UniProt P43490) | key= `O=C(NCc1ccc(S(=O)(=O)c2ccc(C(F)(F)F)c(F)c2)cc1)c1cc2ccncc2s1`
**A:** 8.06

* * *

Biological target: NAMPT (Homo sapiens)
Construct: His tag; host or cells: E. coli
Experiment: Biochemical inhibition assay: NAMPT enzymatic reaction, NMN quantified by mass spectrometry
Conditions: NAMPT enzymatic assay; read-out: Biochem IC50
MEASUREMENT KIND: pIC50
// pIC50 here means minus log10 of the molar concentration (mol/L)

Check out these entries, answers already filled in.
1) O=C(NCc1ccc(S(=O)(=O)c2cccc(OCCN3CCOCC3)c2)cc1)c1ccc2nccn2c1    8.17
2) O=C(NCc1ccc(S(=O)(=O)c2cc(F)ccc2CO)cc1)c1cnc2nccn2c1    7.89
3) CC(C)Oc1cc(F)ccc1S(=O)(=O)c1ccc(CNC(=O)c2cc3ccncc3o2)cc1    7.81
4) O=C(NCc1ccc(S(=O)(=O)c2ccc(C(F)(F)F)cn2)cc1)c1cc2ccncc2o1    7.43
5) CC(C)Oc1ccc(S(=O)(=O)c2ccc(CNC(=O)c3cnc4nccn4c3)cc2)cc1    8.37
6) O=C(NCc1ccc(S(=O)(=O)c2ccc(Cl)c(C(F)(F)F)c2)cc1)c1cc2ccncc2o1    8.22

**Q:** Requested read-out: pIC50. Entry: `O=C(NCc1ccc(S(=O)(=O)c2cccc3c2sc2ccccc23)cc1)c1cc2ccncc2o1`
**A:** 8.06

**Q:** Requested read-out: pIC50. Entry: `O=C(NCc1ccc(S(=O)(=O)c2ccc(C(F)(F)F)cc2F)cc1)c1cc2ccncc2s1`
**A:** 7.69

**Q:** Requested read-out: pIC50. Entry: `O=C(NCc1ccc(S(=O)(=O)c2cccc3c2OCC3)cc1)c1cnc2[nH]ncc2c1`
**A:** 7.61

**Q:** Requested read-out: pIC50. Entry: `Cc1cncc(S(=O)(=O)c2ccc(CNC(=O)c3cc4ccncc4s3)cc2)c1`
**A:** 8.22

**Q:** Requested read-out: pIC50. Entry: `O=C(NCc1ccc(S(=O)(=O)c2nccs2)cc1)c1cc2ccncc2o1`
**A:** 7.70
